tested on: HCT116; assay: cell viability (CellTiter-Glo) relative to plate median (fraction of plate median); higher = more viable cells; details: 10 µM; treatment time 24 h; reporter: TCF4/Wnt
Hi! Could you tag entries with cell viability below 1 as Yes, and those at or above as No? Much appreciated.

Below are worked cases with known answers.
{"molecule": "C[C@@H](Oc1cc(-n2cnc3ccc(CN4CCN(C)CC4)cc32)sc1C(N)=O)c1ccccc1C(F)(F)F", "target": "HCT116", "class": "Yes"}
{"molecule": "Cc1ccc(NC(=O)c2cccc(N(C)C)c2)cc1NC(=O)c1ccc(O)cc1", "target": "HCT116", "class": "No"}
{"molecule": "NC(=O)c1ccc(N(C(N)=O)c2c(F)cccc2F)nc1-c1ccc(F)cc1F", "target": "HCT116", "class": "No"}

Prompt line: Given the entry CO[C@H]1C[C@@H]2CC[C@@H](C)[C@@](O)(O2)C(=O)C(=O)N2CCCC[C@H]2C(=O)O[C@H]([C@H](C)C[C@@H]2CC[C@@H](OC(=O)C(C)(CO)CO)[C@H](OC)C2)CC(=O)[C@H](C)/C=C(\C)[C@@H](O)[C@@H](OC)C(=O)[C@H](C)C[C@H](C)/C=C/C=C/C=C/1C [Temsirolimus (Torisel)] , would its reported cell viability be below 1?
Response line: No

Prompt line: Given the entry "Cc1cccc(-c2[nH]c(C(C)(C)C)nc2-c2ccc3nccnc3c2)n1" , would its reported cell viability be below 1?
Response line: No

Prompt line: Given the entry "CCCCCCCCCCCCc1ccc(S(=O)(=O)Nc2nncs2)cc1" , would its reported cell viability be below 1?
Response line: No

Prompt line: Given the entry N#CC1(c2ccc(NC(=O)c3cccnc3NCc3ccncc3)cc2)CCCC1 [Apatinib (YN968D1)] , would its reported cell viability be below 1?
Response line: No

Prompt line: Given the entry "COc1ccc(-c2ccc3c(N4CCOC[C@@H]4C)nc(N4CCOC[C@@H]4C)nc3n2)cc1CO" , would its reported cell viability be below 1?
Response line: Yes

Prompt line: Given the entry "CC[C@@H]1C(=O)N(C)c2cnc(Nc3ccc(C(=O)NC4CCN(C)CC4)cc3OC)nc2N1C1CCCC1" , would its reported cell viability be below 1?
Response line: Yes

Prompt line: Given the entry "CC(C)(C)c1nc(-c2cccc(NS(=O)(=O)c3c(F)cccc3F)c2F)c(-c2ccnc(N)n2)s1" , would its reported cell viability be below 1?
Response line: No

Prompt line: Given the entry CC1(C)CNc2cc(NC(=O)c3cccnc3NCc3ccncc3)ccc21 [Motesanib Diphosphate] , would its reported cell viability be below 1?
Response line: No

Prompt line: Given the entry Nc1ccc(-c2ccc3ncc4ccc(=O)n(-c5cccc(C(F)(F)F)c5)c4c3c2)cn1 [Torin 2] , would its reported cell viability be below 1?
Response line: Yes

Prompt line: Given the entry CCCS(=O)(=O)Nc1ccc(F)c(C(=O)c2c[nH]c3ncc(-c4ccc(Cl)cc4)cc23)c1F [Vemurafenib (PLX4032)] , would its reported cell viability be below 1?
Response line: No

Prompt line: Given the entry "CC(C)CC(=O)Nc1n[nH]c2c1CN(C(=O)C1CCN(C)CC1)C2(C)C" , would its reported cell viability be below 1?
Response line: Yes

Prompt line: Given the entry "Cc1ccc([N+](=O)[O-])cc1S(=O)(=O)N(C)/N=C/c1cnc2ccc(Br)cn12" , would its reported cell viability be below 1?
Response line: Yes

Prompt line: Given the entry "Nc1nc(N)c2nc(-c3cccc(O)c3)c(-c3cccc(O)c3)nc2n1" , would its reported cell viability be below 1?
Response line: No

====

system: DLD1; experiment: cell viability (CellTiter-Glo) relative to plate median (fraction of plate median); higher = more viable cells; details: 5 µM; treatment time 24 h; reporter: 7TFP
Provide the reported cell viability of each item.
Give bare numbers.

Worked set:
{"compound": "Cn1ccnc1S", "target": "DLD1", "obs_value": 0.997}
{"compound": "C=CCc1ccc(OC(=O)c2ccccc2)c(OC)c1", "target": "DLD1", "obs_value": 1.02}
{"compound": "CC(C)=CC1C(CO)C1(C)C (configuration not stated)", "target": "DLD1", "obs_value": 0.996}
{"compound": "CC(=O)N1CCCC(N)C1=O (configuration not stated) [N-Acetyl-3-amino-2-piperidinon]", "target": "DLD1", "obs_value": 0.974}

Your task in this section: give cell viability for each listed record.
1. CC1Cc2ccccc2N1NC(=O)c1ccc(Cl)c(S(N)(=O)=O)c1 (configuration not stated)
2. CNCc1ccccc1

Response line:
1. 1.01
2. 1.03

Your task in this section: give cell viability for each listed record.
1. CCCCCCCCCCCCCc1ccco1
2. COc1ccc(-c2coc3cc(O)ccc3c2=O)cc1
3. C[C@@H]1C/C=C/C=C/C=C/C=C/[C@H](O[C@@H]2O[C@H](C)[C@@H](O)[C@H](N)[C@@H]2O)C[C@@H]2O[C@](O)(C[C@@H](O)C[C@H]3O[C@@H]3/C=C/C(=O)O1)C[C@H](O)[C@H]2C(=O)O
4. CCC1(C)CC(=O)NC1=O (configuration not stated)

Response line:
1. 1.05
2. 1.01
3. 1.03
4. 0.932

Your task in this section: give cell viability for each listed record.
1. C[C@H](CCC(=O)O)[C@H]1CC[C@H]2[C@@H]3CC[C@@H]4CCCC[C@]4(C)[C@H]3CC[C@]12C
2. Cc1ccc(S(=O)(=O)NC(=O)NN2CCCCCC2)cc1
3. CCc1cnn2c(NCc3ccc[n+]([O-])c3)cc(N3CCCC[C@H]3CCO)nc12 [Dinaciclib]
4. Clc1ccc(CSC(Cn2ccnc2)c2ccc(Cl)cc2Cl)cc1 (configuration not stated)
5. COc1cccc2c1CCC1CC(=O)CC[C@]21C (some centres not stated)
6. CCC(C)C(N)=O (configuration not stated) [2-Methylbutyramide]

Response line:
1. 0.984
2. 0.911
3. 0.99
4. 1.01
5. 1.06
6. 1.06

Your task in this section: give cell viability for each listed record.
1. O=C1c2c(O)ccc(O)c2C(=O)c2c(NCCNCCO)ccc(NCCNCCO)c21
2. O=C1O[C@H]([C@@H](O)CO)C(O)=C1O

Response line:
1. 1.09
2. 0.983

====

Provide the reported cell viability of each item.
tested on: DLD1; test: cell viability (CellTiter-Glo) relative to plate median (fraction of plate median); higher = more viable cells; details: 5 µM; treatment time 24 h; reporter: 7TFP
Give bare numbers.

Worked set:
{"compound": "CC(=O)OC1CC[C@@]2(C)C(CC[C@H]3[C@@H]4CC=C(C(C)=O)[C@@]4(C)C(=O)C[C@@H]32)C1 (stereo not given in full)", "cell viability": 1}
{"compound": "CC(=O)NCCCS(=O)(=O)O", "cell viability": 1.03}
{"compound": "Nc1ccc(S(=O)(=O)Nc2ccnn2-c2ccccc2)cc1", "cell viability": 1.03}
{"compound": "CC(=O)Oc1c(C)c(C)c2c(c1C)CCC(C)(CCCC(C)CCCC(C)CCCC(C)C)O2 (stereo not drawn) [alpha-TOCHOPHERYL ACETATE]", "cell viability": 1.06}
{"compound": "C[C@]12CC[C@@H]3c4ccc(O)cc4CC[C@H]3[C@@H]1CCC2=O", "cell viability": 0.894}

Your task in this section: give cell viability for each listed record.
1. COCCCOc1cc(C[C@@H](C[C@H](NC(=O)OC(C)(C)C)[C@@H]2C[C@@H](C(C)C)C(=O)O2)C(C)C)ccc1OC
2. C/C(=C\C(=O)OCCCCCCCCC(=O)O)C[C@@H]1OC[C@H](C[C@@H]2O[C@H]2[C@@H](C)[C@H](C)O)[C@@H](O)[C@H]1O
3. CCOC(=O)C(C)(C)Oc1ccc(Cl)cc1
4. O=C(Oc1cccc2cccnc12)c1ccccc1

Response line:
[1.01, 0.973, 1.01, 0.999]

====

test system: SW480; assay: cell viability (CellTiter-Glo) relative to plate median (fraction of plate median); higher = more viable cells; settings: 5 µM; treatment time 24 h; reporter: 7TFP
Provide the reported cell viability of each item.
One number for each entry.

Worked set:
{"molecule": "CO/C=C/C(=O)c1cc2cnc3c(=N)cc(NC(C)=O)c([nH]1)c23", "target": "SW480", "cell viability": 1.14}
{"molecule": "CC(=O)OCC(=O)[C@@]12OC3(CCCC3)O[C@@H]1C[C@H]1[C@@H]3CCC4=CC(=O)C=C[C@]4(C)[C@@]3(F)[C@@H](O)C[C@@]12C", "target": "SW480", "cell viability": 0.965}
{"molecule": "C[C@]12CC[C@@H]3c4ccc(O)cc4CC[C@H]3[C@@H]1C[C@@H](O)[C@@H]2O", "target": "SW480", "cell viability": 1}
{"molecule": "CC(=O)Oc1c(C)c(C)c2c(c1C)CCC(C)(CCCC(C)CCCC(C)CCCC(C)C)O2 (stereo not drawn) [alpha-TOCHOPHERYL ACETATE]", "target": "SW480", "cell viability": 1.06}

Your task in this section: give cell viability for each listed record.
1. CC(=O)OCC(=O)[C@@]1(O)[C@@H](C)C[C@H]2[C@@H]3CCC4=CC(=O)C=C[C@]4(C)[C@@]3(F)[C@@H](O)C[C@@]21C
2. Cc1cc(=O)oc2c(O)c(O)ccc12

Response line:
1. 1
2. 0.925
